- System: VRK2
- conditions: Compound Concentration (nM):1000;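 also: KINOMEscan scanMAX binding as percent activity remaining versus control; lower means stronger binding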
Exercise: state measured Percent Control for each of the compounds provided.
The answer is to be given in %; state only the numeric part.

In: Fill in: Percent Control of COC(=O)Nc1nc2ccc(Oc3ccc(NC(=O)Nc4cc(C(F)(F)F)ccc4F)cc3)cc2s1.Cl [GW693917A] is ___
Out: 73

In: Fill in: Percent Control of Cl.O=C(O[C@H]1CN[C@H](C#Cc2cc3ncnc(Nc4ccc5c(cnn5Cc5ccccc5)c4)c3s2)C1)N1CCOCC1 [GSK200398A] is ___
Out: 87

In: Fill in: Percent Control of C/C(Nc1ccc(S(N)(=O)=O)cc1)=C1/C(=O)Nc2ccccc21 [GW335962X] is ___
Out: 80

In: Fill in: Percent Control of NS(=O)(=O)c1ccc(N/N=C2\C(=O)Nc3ccc(C(=O)NCCc4c[nH]cn4)cc32)cc1 [GW300660X] is ___
Out: 100

In: Fill in: Percent Control of CN1CCN(C(=O)c2ccc(NC(=O)Nc3ccc(N(C)c4ccnc(Nc5ccc(CS(C)(=O)=O)cc5)n4)cc3)cc2)CC1.Cl [GW830263A] is ___
Out: 93

In: Fill in: Percent Control of Cl.c1ccc(Cc2nc3ccc(Nc4ncnc5ccccc45)cc3[nH]2)cc1 [GR269666A] is ___
Out: 100

In: Fill in: Percent Control of CC1=C(C(=O)Nc2ccc3[nH]ncc3c2)C(c2ccc3ccccc3c2)CC(=O)N1 (stereo not drawn) [GSK270822A] is ___
Out: 36

In: Fill in: Percent Control of Nc1ncnc2occ(-c3ccc(NC(=O)Nc4cc(C(F)(F)F)ccc4F)cc3)c12 [GW770249X] is ___
Out: 100

In: Fill in: Percent Control of Cl.O=C(Nc1ccc(Oc2ccc3[nH]c(NC(=O)c4ccccc4)nc3c2)cc1)Nc1cc(C(F)(F)F)ccc1F [GW709042A] is ___
Out: 100

In: Fill in: Percent Control of CN(C)c1cc2c(Nc3ccc4c(cnn4Cc4ccccc4)c3)ncnc2cn1 [GW282974X] is ___
Out: 81

In: Fill in: Percent Control of CCS(=O)(=O)c1ccc(OC)c(Nc2ncc(-c3cccc(OC)c3)o2)c1 [GW580509X] is ___
Out: 100

In: Fill in: Percent Control of COc1ccccc1-c1cc(/C=C2\C(=O)Nc3ncc(Br)cc32)cc(Br)c1O [GW442130X] is ___
Out: 89

In: Fill in: Percent Control of COc1cc2ncnc(Nc3ccc4c(cnn4Cc4ccccc4)c3)c2cc1OC.Cl [GW282449A] is ___
Out: 100

In: Fill in: Percent Control of Cc1cc(O)cc(C)c1/C=C/c1cncc(C(N)=O)c1 [GW435821X] is ___
Out: 100

In: Fill in: Percent Control of NS(=O)(=O)c1ccc(N/N=C2\C(=O)Nc3ccc(Cl)cc32)cc1 [GW280670X] is ___
Out: 100

---

- System: DYRK1A
- conditions: Compound Concentration (nM):1000
Lab note: anything with Percent Control at or over 80% counts as criterion met; the rest go in criterion not met.

In: Item CC1=C(C(=O)Nc2ccc3[nH]ncc3c2)C(c2ccc3ccccc3c2)CC(=O)N1 (stereo not drawn) [GSK270822A] with Percent Control of 80% or above?
Out: criterion met

In: Item COc1ccc2cc(-c3c(-c4ccncc4)nc(-c4ccc(S(C)(=O)=O)cc4C)n3C)ccc2c1 [SB-633825] with Percent Control of 80% or above?
Out: criterion not met

In: Item COc1cccc(-n2ncc3c(N/N=C/c4ccncc4)ncnc32)c1 [GW784752X] with Percent Control of 80% or above?
Out: criterion not met

In: Item C/C(Nc1ccc(S(N)(=O)=O)cc1)=C1/C(=O)Nc2ccccc21 [GW335962X] with Percent Control of 80% or above?
Out: criterion not met

In: Item Cl.c1ccc(Cc2nc3ccc(Nc4ncnc5ccccc45)cc3[nH]2)cc1 [GR269666A] with Percent Control of 80% or above?
Out: criterion met

In: Item COc1cc(C)c(N(C)C(=O)CN(C)C)cc1Nc1nc(Nc2cccc(F)c2C(N)=O)c2cc[nH]c2n1 [GSK2219385] with Percent Control of 80% or above?
Out: criterion not met
